Origin of the recorded values: patent US20240174690A1

Recorded IC50 by entry
Tested on: AsPC-1 cells
Assay: AsPC-1 CTG proliferation assay (120 h) (pancreatic cancer, G12D)
Assay type: cell-based
Conditions: Homo sapiens, ASPC1
Provide only the numeric value, understood in nM.

Some entries whose results are on file:
[2H]C([2H])([2H])N1C[C@H](F)C[C@H]1[C@H](C)Oc1cc(N2CCN(C([2H])([2H])[2H])C3(CC3)C2)nc(-c2noc3c2CCC[C@@]32CCCc3sc(N)c(C#N)c32)n1 82
CO[C@@H]1C[C@@H]([C@H](C)Oc2cc(N3CCN(C)C4(CC4)C3)nc(-c3onc4c3CCC[C@@]43CCCc4sc(N)c(C#N)c43)n2)N(C)C1 115

[in] Report IC50 for `C[C@H](Oc1cc(N2CC[C@H](N3CCCC3)C2)nc(-c2noc3c2CCC[C@@]32CCCc3sc(N)c(C#N)c32)n1)[C@@H]1CCCN1C` please.
[out] 245

[in] Report IC50 for `C[C@H](Oc1cc([C@H]2CCNC2)nc(-c2noc3c2CCC[C@@]32CCCc3sc(N)c(C#N)c32)n1)[C@@H]1CCCN1C` please.
[out] 935

[in] Report IC50 for `C[C@H](Oc1cc(-c2cnsc2)nc(-c2noc3c2CCC[C@@]32CCCc3sc(N)c(C#N)c32)n1)[C@@H]1CCCN1C` please.
[out] 2810

[in] Report IC50 for `C[C@H](Oc1cc(N2CCN(CCO)CC2)nc(-c2noc3c2CCC[C@@]32CCCc3sc(N)c(C#N)c32)n1)[C@@H]1CCCN1C` please.
[out] 2730

[in] Report IC50 for `CO[C@@H]1C[C@@H]([C@H](C)Oc2cc(-c3cnn(C)n3)nc(-c3noc4c3CCC[C@@]43CCCc4sc(N)c(C#N)c43)n2)N(C)C1` please.
[out] 9190

[in] Report IC50 for `C[C@H](Oc1cc(Cl)nc(-c2onc3c2CCC[C@@]32CCCc3sc(N)c(C#N)c32)n1)[C@@H]1CCCN1C` please.
[out] 5900

[in] Report IC50 for `C[C@H](Oc1cc(-n2ccc(-c3cn([C@@H]4CCOC4)nn3)n2)nc(-c2noc3c2CCC[C@@]32CCCc3sc(N)c(C#N)c32)n1)[C@@H]1CCCN1C` please.
[out] 297

----------
Biological target: CYP3A4 (Homo sapiens (Human))
Sequence (P08684 whole entry): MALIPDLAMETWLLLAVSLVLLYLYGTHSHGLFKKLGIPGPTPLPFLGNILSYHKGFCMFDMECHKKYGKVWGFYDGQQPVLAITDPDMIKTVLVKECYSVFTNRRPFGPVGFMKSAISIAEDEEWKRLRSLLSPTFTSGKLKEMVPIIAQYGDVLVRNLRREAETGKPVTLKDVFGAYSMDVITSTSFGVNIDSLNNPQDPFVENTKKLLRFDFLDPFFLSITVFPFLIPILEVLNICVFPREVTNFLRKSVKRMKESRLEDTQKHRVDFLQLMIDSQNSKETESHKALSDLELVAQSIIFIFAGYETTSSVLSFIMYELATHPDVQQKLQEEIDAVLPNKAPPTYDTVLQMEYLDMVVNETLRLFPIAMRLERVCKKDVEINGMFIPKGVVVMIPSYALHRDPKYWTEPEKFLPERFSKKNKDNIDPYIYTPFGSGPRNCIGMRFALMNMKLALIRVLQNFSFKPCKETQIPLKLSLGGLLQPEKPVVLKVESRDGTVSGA
Assay: Mechanism based inhibition of CYP3A4 assay (MBI 3A4)
Assay type: in vitro ADME
Details: hydroxy-midazolam formation after 30 min vs 0 min preincubation, 25 uM, human liver microsomes
Recorded MBI 3A4 by entry
Provide only the numeric value, understood in %.

C[C@H](O)Cn1ccc(-c2cc(O[C@@H](C)[C@@H]3CCCN3C)nc(-c3noc4c3CCC[C@@]43CCCc4sc(N)c(C#N)c43)n2)n1 81

[in] Report MBI 3A4 for `C[C@H](Oc1cc(N2CCN(C)C3(CC3)C2)nc(-c2onc3c2CCC[C@@]32CCCc3sc(N)c(C#N)c32)n1)[C@@H]1C[C@@H](F)CN1C` please.
[out] 37

[in] Report MBI 3A4 for `C[C@H](Oc1cc(-n2ccc(C(=O)NC3(C)COC3)n2)nc(-c2noc3c2CCC[C@@]32CCCc3sc(N)c(C#N)c32)n1)[C@@H]1CCCN1C` please.
[out] 58

[in] Report MBI 3A4 for `C[C@H](Oc1cc(-n2ccc(C(N)=O)n2)nc(-c2noc3c2CCC[C@@]32CCCc3sc(N)c(C#N)c32)n1)[C@@H]1CCCN1C` please.
[out] 77

[in] Report MBI 3A4 for `C[C@H](Oc1cc(-c2cnsc2)nc(-c2noc3c2CCC[C@@]32CCCc3sc(N)c(C#N)c32)n1)[C@@H]1CCCN1C` please.
[out] 76

[in] Report MBI 3A4 for `CO[C@@H]1C[C@@H]([C@H](C)Oc2cc(-n3ccnc3)nc(-c3noc4c3CCC[C@@]43CCCc4sc(N)c(C#N)c43)n2)N(C)C1` please.
[out] 68
